- Tested on: Gurav oral cancer cell line
- assay.method.text: MTT assay, 48 h continuous drug exposure, Gurav
- Assay type: cell-based, human
- measurement.conditions: oral cancer cell line; 48 h exposure; MTT; read-out: GI50 Gurav
- Procedure: For each compound, dose response curves for each cell line were measured at a minimum of five concentrations at 10 fold dilutions. A protocol of 48 h continuous drug exposure was used and a MTT assay was used to estimate cell viability or growth. The percent of cell growth (GI50) compared with the control was calculated.
Assign GI50 to each entry below.
Please give a number only; it is taken to be in µM.

Q: // returns reported GI50 for input COc1cc2c(cc1OCCCCCOc1cccc(Oc3cc(OC)c(OC)c(OC)c3)c1[N+](=O)[O-])N=C[C@@H]1CCCN1C2=O [21g]
Ans: 0.16

Q: // returns reported GI50 for input COc1ccc(Oc2cccc(OCCCCCOc3cc4c(cc3OC)C(=O)N3CCC[C@H]3C=N4)c2[N+](=O)[O-])cc1OC [20g]
Ans: 0.16

Q: // returns reported GI50 for input COc1ccc(Oc2ccc(OCCCCCOc3cc4c(cc3OC)C(=O)N3CCC[C@H]3C=N4)cc2I)cc1 [16c]
Ans: 2.23

Q: // returns reported GI50 for input COc1cc2c(cc1OCCCCCOc1ccc(Oc3cc(OC)c(OC)c(OC)c3)c([N+](=O)[O-])c1)N=C[C@@H]1CCCN1C2=O [21c]
Ans: 2.86

* * *

- Test system: MCF7 breast cancer cell line
- assay.method.text: MTT assay, 48 h continuous drug exposure, MCF7
- Type: cell-based, human
- measurement.conditions: 48 h exposure
quantity: GI50 (nM)
Please give a number only; it is taken to be in nM.

Q: API: value(readout= GI50, system= MCF7 breast cancer cell line, query= COc1ccc(Oc2ccc(OCCCCCOc3cc4c(cc3OC)C(=O)N3CCC[C@H]3C=N4)cc2[N+](=O)[O-])cc1OC [20c] )
Ans: 140

Q: API: value(readout= GI50, system= MCF7 breast cancer cell line, query= COc1cc2c(cc1OCCCCCOc1ccc(N)c(Oc3cc(OC)c(OC)c(OC)c3)c1)N=C[C@@H]1CCCN1C2=O [12g] )
Ans: 160

Q: API: value(readout= GI50, system= MCF7 breast cancer cell line, query= COc1cc2c(cc1OCCCCCN1CCN(C(=O)c3ccc(Oc4cc(OC)c(OC)c(OC)c4)c(N)c3)CC1)N=C[C@@H]1CCCN1C2=O [24c] )
Ans: 170

Q: API: value(readout= GI50, system= MCF7 breast cancer cell line, query= COc1ccc(Oc2cccc(OCCCCCOc3cc4c(cc3OC)C(=O)N3CCC[C@H]3C=N4)c2[N+](=O)[O-])cc1 [19g] )
Ans: 2000

Q: API: value(readout= GI50, system= MCF7 breast cancer cell line, query= COc1ccc(Oc2ccc(C(=O)N3CCN(CCCCCOc4cc5c(cc4OC)C(=O)N4CCC[C@H]4C=N5)CC3)cc2N)cc1OC [23c] )
Ans: 150

Q: API: value(readout= GI50, system= MCF7 breast cancer cell line, query= COc1ccc(Oc2ccc(C(=O)N3CCN(CCCCCOc4cc5c(cc4OC)C(=O)N4CCC[C@H]4C=N5)CC3)cc2N)cc1 [22c] )
Ans: 170

* * *

- Test system: Hop62 lung cancer cell line
- assay.method.text: MTT assay, 48 h continuous drug exposure, Hop62
- Assay type: cell-based, human
- measurement.conditions: lung cancer cell line; 48 h exposure; MTT; read-out: GI50 Hop62
Assign GI50 to each entry below.
Please give a number only; it is taken to be in nM.

Q: // returns reported GI50 for input COc1ccc(Oc2ccc(C(=O)N3CCN(CCCCCOc4cc5c(cc4OC)C(=O)N4CCC[C@H]4C=N5)CC3)cc2N)cc1OC [23c]
Ans: 2280

Q: // returns reported GI50 for input COc1ccc(Oc2ccc(OCCCCCOc3cc4c(cc3OC)C(=O)N3CCC[C@H]3C=N4)cc2I)cc1 [16c]
Ans: 1500

Q: // returns reported GI50 for input COc1ccc(Oc2ccc(C(=O)N3CCN(CCCCCOc4cc5c(cc4OC)C(=O)N4CCC[C@H]4C=N5)CC3)cc2[N+](=O)[O-])cc1OC [32c]
Ans: 180

Q: // returns reported GI50 for input COc1ccc(Oc2cccc(OCCCCCOc3cc4c(cc3OC)C(=O)N3CCC[C@H]3C=N4)c2[N+](=O)[O-])cc1 [19g]
Ans: 2500

Q: // returns reported GI50 for input COc1cc2c(cc1OCCCCCN1CCN(C(=O)c3ccc(Oc4cc(OC)c(OC)c(OC)c4)c(N)c3)CC1)N=C[C@@H]1CCCN1C2=O [24c]
Ans: 2260

Q: // returns reported GI50 for input COc1ccc(Oc2ccc(C(=O)N3CCN(CCCCCOc4cc5c(cc4OC)C(=O)N4CCC[C@H]4C=N5)CC3)cc2N)cc1 [22c]
Ans: 2300

Q: // returns reported GI50 for input COc1cc2c(cc1OCCCCCOc1ccc(Oc3cc(OC)c(OC)c(OC)c3)c(I)c1)N=C[C@@H]1CCCN1C2=O [18c]
Ans: 2010

* * *

- Tested on: Hop62 lung cancer cell line
- assay.method.text: MTT assay, 48 h continuous drug exposure, Hop62
- Assay type: cell-based, human
- measurement.conditions: lung cancer cell line; 48 h exposure; MTT; read-out: GI50 Hop62
Assign GI50 to each entry below.
Kindly write the number and append the unit.

Q: // returns reported GI50 for input COc1ccc(Oc2ccc(OCCCCCOc3cc4c(cc3OC)C(=O)N3CCC[C@H]3C=N4)cc2[N+](=O)[O-])cc1OC [20c]
Ans: 0.14 µM

Q: // returns reported GI50 for input COc1ccc(Oc2cccc(OCCCCCOc3cc4c(cc3OC)C(=O)N3CCC[C@H]3C=N4)c2[N+](=O)[O-])cc1OC [20g]
Ans: 0.19 µM

Q: // returns reported GI50 for input COc1cc2c(cc1OCCCCCOc1ccc(N)c(Oc3cc(OC)c(OC)c(OC)c3)c1)N=C[C@@H]1CCCN1C2=O [12g]
Ans: 2.86 µM

Q: // returns reported GI50 for input COc1cc2c(cc1OCCCCCOc1ccc(Oc3cc(OC)c(OC)c(OC)c3)c([N+](=O)[O-])c1)N=C[C@@H]1CCCN1C2=O [21c]
Ans: 3.1 µM

Q: // returns reported GI50 for input COc1ccc(Oc2ccc(C(=O)N3CCN(CCCCCOc4cc5c(cc4OC)C(=O)N4CCC[C@H]4C=N5)CC3)cc2[N+](=O)[O-])cc1 [31c]
Ans: 0.19 µM

Q: // returns reported GI50 for input COc1ccc(Oc2cc(OCCCCCOc3cc4c(cc3OC)C(=O)N3CCC[C@H]3C=N4)ccc2N)cc1OC [11g]
Ans: 2.43 µM

Q: // returns reported GI50 for input COc1cc2c(cc1OCCCCCN1CCN(C(=O)c3ccc(Oc4cc(OC)c(OC)c(OC)c4)c([N+](=O)[O-])c3)CC1)N=C[C@@H]1CCCN1C2=O [33c]
Ans: 2.67 µM

Q: // returns reported GI50 for input COc1ccc(Oc2cc(OCCCCCOc3cc4c(cc3OC)C(=O)N3CCC[C@H]3C=N4)ccc2N)cc1 [10g]
Ans: 2.1 µM

Q: // returns reported GI50 for input COc1ccc(Oc2ccc(OCCCCCOc3cc4c(cc3OC)C(=O)N3CCC[C@H]3C=N4)cc2I)cc1OC [17c]
Ans: 1.12 µM

Q: // returns reported GI50 for input COc1ccc(Oc2cc(OCCCCCOc3cc4c(cc3OC)C(=O)N3CCC[C@H]3C=N4)ccc2I)cc1OC [17g]
Ans: 2.25 µM

Q: // returns reported GI50 for input COc1cc2c(cc1OCCCCCOc1cccc(Oc3cc(OC)c(OC)c(OC)c3)c1[N+](=O)[O-])N=C[C@@H]1CCCN1C2=O [21g]
Ans: 2.13 µM

* * *

- Tested on: Gurav oral cancer cell line
- assay.method.text: MTT assay, 48 h continuous drug exposure, Gurav
- Assay type: cell-based, human
- measurement.conditions: oral cancer cell line; 48 h exposure; MTT; read-out: GI50 Gurav
quantity: GI50 (nM)
Please give a number only; it is taken to be in nM.

Q: // returns reported GI50 for input COc1ccc(Oc2cc(OCCCCCOc3cc4c(cc3OC)C(=O)N3CCC[C@H]3C=N4)ccc2I)cc1OC [17g]
Ans: 190

Q: // returns reported GI50 for input COc1cc2c(cc1OCCCCCN1CCN(C(=O)c3ccc(Oc4cc(OC)c(OC)c(OC)c4)c(N)c3)CC1)N=C[C@@H]1CCCN1C2=O [24c]
Ans: 150

Q: // returns reported GI50 for input COc1cc2c(cc1OCCCCCN1CCN(C(=O)c3ccc(Oc4cc(OC)c(OC)c(OC)c4)c([N+](=O)[O-])c3)CC1)N=C[C@@H]1CCCN1C2=O [33c]
Ans: 170

Q: // returns reported GI50 for input COc1ccc(Oc2ccc(C(=O)N3CCN(CCCCCOc4cc5c(cc4OC)C(=O)N4CCC[C@H]4C=N5)CC3)cc2[N+](=O)[O-])cc1 [31c]
Ans: 160

Q: // returns reported GI50 for input COc1ccc(Oc2cc(OCCCCCOc3cc4c(cc3OC)C(=O)N3CCC[C@H]3C=N4)ccc2N)cc1 [10g]
Ans: 2430

Q: // returns reported GI50 for input COc1ccc(Oc2cccc(OCCCCCOc3cc4c(cc3OC)C(=O)N3CCC[C@H]3C=N4)c2[N+](=O)[O-])cc1 [19g]
Ans: 2260

Q: // returns reported GI50 for input COc1ccc(Oc2ccc(C(=O)N3CCN(CCCCCOc4cc5c(cc4OC)C(=O)N4CCC[C@H]4C=N5)CC3)cc2N)cc1OC [23c]
Ans: 120

Q: // returns reported GI50 for input COc1ccc(Oc2ccc(C(=O)N3CCN(CCCCCOc4cc5c(cc4OC)C(=O)N4CCC[C@H]4C=N5)CC3)cc2N)cc1 [22c]
Ans: 160

Q: // returns reported GI50 for input COc1ccc(Oc2ccc(C(=O)N3CCN(CCCCCOc4cc5c(cc4OC)C(=O)N4CCC[C@H]4C=N5)CC3)cc2[N+](=O)[O-])cc1OC [32c]
Ans: 120

Q: // returns reported GI50 for input COc1ccc(Oc2ccc(OCCCCCOc3cc4c(cc3OC)C(=O)N3CCC[C@H]3C=N4)cc2[N+](=O)[O-])cc1OC [20c]
Ans: 1240

Q: // returns reported GI50 for input COc1ccc(Oc2cc(OCCCCCOc3cc4c(cc3OC)C(=O)N3CCC[C@H]3C=N4)ccc2N)cc1OC [11g]
Ans: 160

Q: // returns reported GI50 for input COc1cc2c(cc1OCCCCCOc1ccc(N)c(Oc3cc(OC)c(OC)c(OC)c3)c1)N=C[C@@H]1CCCN1C2=O [12g]
Ans: 170

Q: // returns reported GI50 for input COc1ccc(Oc2ccc(OCCCCCOc3cc4c(cc3OC)C(=O)N3CCC[C@H]3C=N4)cc2I)cc1OC [17c]
Ans: 2270

Q: // returns reported GI50 for input COc1cc2c(cc1OCCCCCOc1ccc(Oc3cc(OC)c(OC)c(OC)c3)c(I)c1)N=C[C@@H]1CCCN1C2=O [18c]
Ans: 2680
